# System: ATP;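 note: ATP exposure 15 min at 22 °C before imaging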
# Experiment Notes: switch fluorescence ratio, 500 uM ATP over buffer (Cy3 cluster intensity, sum of 5 cycles each) (fold (ratio)); higher = stronger signal-on switching upon ATP binding; sequences stand for … in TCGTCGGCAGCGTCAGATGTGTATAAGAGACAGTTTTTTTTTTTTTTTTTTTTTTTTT…TC
# Condition Description: aptamer strand: ATP DNA aptamer (quencher-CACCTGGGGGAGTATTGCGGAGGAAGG + anchor), 100 nM annealed; ATP concentration: 500 uM
Result Type: switch fluorescence ratio
Give a plain numeric answer without units written out.

CAAAAAGTTT | 1.05
GATAGGGCTT | 0.994
GGGGTCCTTT | 0.989

sequence `TTGTTTAAAG` , switch fluorescence ratio observed: 0.976

====

// switch fluorescence ratio lookup, one value per entry
# Test system: ATP;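 note: ATP exposure 15 min at 22 °C before imaging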
# Experiment Notes: switch fluorescence ratio, 500 uM ATP over buffer (Cy3 cluster intensity, sum of 5 cycles each) (fold (ratio)); higher = stronger signal-on switching upon ATP binding; sequences stand for … in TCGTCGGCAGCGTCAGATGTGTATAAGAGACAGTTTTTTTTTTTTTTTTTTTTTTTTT…TC
# Condition Description: aptamer strand: ATP DNA aptamer (quencher-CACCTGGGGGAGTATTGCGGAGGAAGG + anchor), 100 nM annealed; ATP concentration: 500 uM
Give a plain numeric answer without units written out.

Measured switch fluorescence ratio for this entry `GTTTTAGGGT` on ATP: 1

Measured switch fluorescence ratio for this entry `AGGAGGAAGT` on ATP: 1.01

Measured switch fluorescence ratio for this entry `TTTTTTAGGT` on ATP: 0.99

Measured switch fluorescence ratio for this entry `GGGATTCGAG` on ATP: 0.987

Measured switch fluorescence ratio for this entry `GGGTAGAATG` on ATP: 1.02

Measured switch fluorescence ratio for this entry `TTGGATTTAG` on ATP: 0.998

Measured switch fluorescence ratio for this entry `AGATACTTGA` on ATP: 1.01

Measured switch fluorescence ratio for this entry `GCGGATGCTT` on ATP: 0.972

Measured switch fluorescence ratio for this entry `ATGCGGTTTT` on ATP: 0.986

====

# System: ATP;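 note: ATP exposure 15 min at 22 °C before imaging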
# Experiment Notes: switch fluorescence ratio, 500 uM ATP over buffer (Cy3 cluster intensity, sum of 5 cycles each) (fold (ratio)); higher = stronger signal-on switching upon ATP binding; sequences stand for … in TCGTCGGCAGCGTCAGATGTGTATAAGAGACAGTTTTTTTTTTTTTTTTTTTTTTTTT…TC
# Condition Description: aptamer strand: ATP DNA aptamer (quencher-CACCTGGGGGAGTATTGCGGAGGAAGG + anchor), 100 nM annealed; ATP concentration: 500 uM
Result Type: switch fluorescence ratio
Give a plain numeric answer without units written out.

GCAGGAGGGA | 1.01
CTATTTAGGG | 0.996
GCTGGTGCGA | 1.01

sequence `TAATCGCCTG` , switch fluorescence ratio observed: 0.981

sequence `TTGATAATCT` , switch fluorescence ratio observed: 1

sequence `TTTCGTGTTT` , switch fluorescence ratio observed: 0.998

sequence `ACGGGGTAGA` , switch fluorescence ratio observed: 1.03

sequence `TTGAGCACGG` , switch fluorescence ratio observed: 0.998

sequence `TGTAAGGTTT` , switch fluorescence ratio observed: 1.01

====

// switch fluorescence ratio lookup, one value per entry
# System: ATP;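 note: ATP exposure 15 min at 22 °C before imaging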
# Experiment Notes: switch fluorescence ratio, 500 uM ATP over buffer (Cy3 cluster intensity, sum of 5 cycles each) (fold (ratio)); higher = stronger signal-on switching upon ATP binding; sequences stand for … in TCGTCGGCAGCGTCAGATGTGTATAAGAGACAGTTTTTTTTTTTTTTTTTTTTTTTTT…TC
# Condition Description: aptamer strand: ATP DNA aptamer (quencher-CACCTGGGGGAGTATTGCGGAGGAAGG + anchor), 100 nM annealed; ATP concentration: 500 uM
Give a plain numeric answer without units written out.

GGGGTTTTGA | 0.977
GAGTAATGCT | 1.27
CACGTAGTAA | 1.13
TCAGGGCGAT | 1.03
GGGGGATGCT | 0.975
ATGGTGAATT | 1.02
TACTTATTGT | 0.975
CTATTTCTAC | 1.03
ATCTGATTGA | 0.971
CGTAAGGCAG | 1

sequence `TTGGGTGGCA` , switch fluorescence ratio observed: 1.03

sequence `TCTGGTAATT` , switch fluorescence ratio observed: 1
